Assay: Free ARV compartmental models
Format: in vivo, Macaca nemestrina
Conditions: male, monkey, in vivo, sc
METRIC: k el (s⁻¹)
Just the number in s⁻¹, nothing appended.

## Input Which k el reading was recorded for the compound C[C@H](Cn1cnc2c(N)ncnc21)OCP(=O)(O)O [Tenofovir] ?
## Output 0.000164

###

Assay: Free ARV compartmental models
Format: in vivo, Macaca nemestrina
Conditions: male, monkey, in vivo, sc, 10.6 mg/kg
METRIC: Vd/F (L/kg)
Give the quantity in L/kg, number only.

## Input Using the record for C[C@H](Cn1cnc2c(N)ncnc21)OCP(=O)(O)O , report its Vd/F.
## Output 1.44

###

# k el per record follows
Experiment: Free ARV compartmental models
Type: in vivo, Macaca nemestrina
Conditions: male, monkey, plasma, sc
Your answer is read as s⁻¹, so omit the unit and give the number.

[[record]]
molecule = "CC(C)c1nc(CN(C)C(=O)N[C@H](C(=O)N[C@@H](Cc2ccccc2)C[C@H](O)[C@H](Cc2ccccc2)NC(=O)OCc2cncs2)C(C)C)cs1 [Ritonavir]"
endpoint_unit = "s⁻¹"
endpoint_value = "2.55e-05"


Now consider a different molecule.
## Input Give the measured k el of Cc1cccc(C)c1OCC(=O)N[C@@H](Cc1ccccc1)[C@@H](O)C[C@H](Cc1ccccc1)NC(=O)[C@H](C(C)C)N1CCCNC1=O [Lopinavir] .
## Output 2.18e-05

###

Experiment: Free ARV compartmental models
Format: in vivo, Macaca nemestrina
Conditions: male, monkey, plasma, sc
METRIC: half-life (h)
Express your answer in h, writing the number without its unit.

## Input Given Cc1cccc(C)c1OCC(=O)N[C@@H](Cc1ccccc1)[C@@H](O)C[C@H](Cc1ccccc1)NC(=O)[C@H](C(C)C)N1CCCNC1=O , state its recorded half-life.
## Output 8.85

## Input What does the data say about its half-life? Entry: CC(C)c1nc(CN(C)C(=O)N[C@H](C(=O)N[C@@H](Cc2ccccc2)C[C@H](O)[C@H](Cc2ccccc2)NC(=O)OCc2cncs2)C(C)C)cs1
## Output 7.54

###

Assay type: in vivo, Macaca nemestrina
Details: male, monkey, plasma, sc
METRIC: Tmax

## Input Please give the measured Tmax for this compound: C[C@H](Cn1cnc2c(N)ncnc21)OCP(=O)(O)O
## Output ~1 h

###

Experiment: in vivo
Details: macaque, sc
METRIC: Kp
When you answer, write just the number.

## Input Kp for CC(C)c1nc(CN(C)C(=O)N[C@H](C(=O)N[C@@H](Cc2ccccc2)C[C@H](O)[C@H](Cc2ccccc2)NC(=O)OCc2cncs2)C(C)C)cs1 [Ritonavir] ?
## Output 7.4

## Input May I ask what Kp has been recorded for C[C@H](Cn1cnc2c(N)ncnc21)OCP(=O)(O)O [Tenofovir] ?
## Output 3.01

###

The following compounds are listed with their measured AUC(0-t) values.
Type: in vivo, Macaca nemestrina
Settings: male, monkey, plasma, sc

Answered cases to consult:
[[record]]
smiles = "Cc1cccc(C)c1OCC(=O)N[C@@H](Cc1ccccc1)[C@@H](O)C[C@H](Cc1ccccc1)NC(=O)[C@H](C(C)C)N1CCCNC1=O"
endpoint_value = "4350 ng·h/mL"

[[record]]
smiles = "CC(C)c1nc(CN(C)C(=O)N[C@H](C(=O)N[C@@H](Cc2ccccc2)C[C@H](O)[C@H](Cc2ccccc2)NC(=O)OCc2cncs2)C(C)C)cs1"
endpoint_value = "1370 ng·h/mL"


## Input Entry C[C@H](Cn1cnc2c(N)ncnc21)OCP(=O)(O)O has what AUC(0-t)?
## Output 14400 ng·h/mL
